Recorded measurements of melting point, one per entry

O=C1Nc2ccccc2S(=O)(=O)N1C1CCN(Cc2ccccc2)CC1
169 to 171 °C
CCOC(=O)/C=C/c1ccc(OCCOC)cc1Oc1cc(C(F)(F)F)ccc1[N+](=O)[O-]
108 to 110 °C
O=C(Oc1cccc2ccccc12)c1ccc(CCl)cc1
93 to 96 °C
C=C1c2ccccc2CC(=NO)c2ccccc21
156 to 160 °C
COc1ccc(C2c3[nH]c4ccccc4c3CCN2C(=O)C=Cc2ccc(C(F)(F)F)cc2)cc1 (configuration not stated)
130 to 135 °C
O=C(O)COc1cc2c(=O)c3ccccc3oc2cc1Cl
237 to 238 °C

Inquiry: Which melting point reading was recorded for the compound CCC1CC2C3CCc4cc(OC)ccc4C3CCC2(C)C1=O (configuration not stated) ?
Reply text: 93 to 94 °C

Inquiry: Which melting point reading was recorded for the compound CCOC(=O)/C=C/c1cccc(C(=O)c2ccc(C(F)(F)F)cc2)n1 ?
Reply text: 66 to 68 °C

Inquiry: Which melting point reading was recorded for the compound COC(=O)c1ccc(NC(=O)C(=O)c2ccc3c(c2)C(C)(C)CCC3(C)C)cc1O ?
Reply text: 146 to 147 °C

Inquiry: Which melting point reading was recorded for the compound O=c1[nH]c(=O)c2cccnc2[nH]1 ?
Reply text: 360 °C

Inquiry: Which melting point reading was recorded for the compound COc1cc(C2=CCCCC2)c(Cl)cc1C(=O)N1Cc2ccc(C(=O)N(C)C[C@@H]3OC(=O)O[C@H]3[C@H](O)[C@H]3COC(=O)O3)n2Cc2ccccc21 ?
Reply text: 163 to 176 °C

Inquiry: Which melting point reading was recorded for the compound CCOC1=C(C(=O)O)CN(C2CCCCC2)C1=O ?
Reply text: 154 to 155 °C

Inquiry: Which melting point reading was recorded for the compound S=C(NCCC1CC(c2ccccc2)=NO1)N1CCOCC1 (configuration not stated) ?
Reply text: 128 to 130 °C

Inquiry: Which melting point reading was recorded for the compound COc1ccc(CC(=O)O)c(C(=O)c2ccccc2)c1 ?
Reply text: 158 to 159 °C

Inquiry: Which melting point reading was recorded for the compound CC(=O)N1c2ccc([N+](=O)[O-])cc2CC1C(C)(C)C (configuration not stated) ?
Reply text: 99 °C

Inquiry: Which melting point reading was recorded for the compound CN1C(=O)C(c2ccc(OC(F)F)cc2)(c2cccc(C3CC(=O)C3(C)C)c2)N=C1N (configuration not stated) ?
Reply text: 172 to 174 °C

Inquiry: Which melting point reading was recorded for the compound Cn1c(C(F)(F)F)cc(=O)n(-c2c(F)cc(Cl)c3c2OC(C)(C)C3O)c1=O (configuration not stated) ?
Reply text: 82 to 83 °C

Inquiry: Which melting point reading was recorded for the compound Cc1c(Cc2ccccc2)c(=O)oc2cc(OCC(=N)NO)cc(OCC(=N)NO)c12 ?
Reply text: 155 to 160 °C

Inquiry: Which melting point reading was recorded for the compound N#CCCN1CCC(c2[nH]cc3cc(F)ccc23)CC1 ?
Reply text: 100 to 101 °C

Inquiry: Which melting point reading was recorded for the compound O=C1C(NCCN2CCCC2)=CC(=O)c2oc(-c3cccc(Br)c3)nc21 ?
Reply text: 169 to 170 °C

Inquiry: Which melting point reading was recorded for the compound CCCCCCn1c(=O)c(=O)[nH]c2c3ccccc3ccc21 ?
Reply text: 196 °C

Inquiry: Which melting point reading was recorded for the compound CN1CCN(C(=O)COc2ccc(N)cc2)CC1 ?
Reply text: 71 to 73 °C

Value source: a melting point compilation (Tetko et al.; mined from patent text by program, amines drawn as free bases though some values may be those of a salt)
